# pIC50 annotations
target.under.test: ROCK2 (Homo sapiens, UniProt O75116)
Sequence (O75116 whole entry, species assumed): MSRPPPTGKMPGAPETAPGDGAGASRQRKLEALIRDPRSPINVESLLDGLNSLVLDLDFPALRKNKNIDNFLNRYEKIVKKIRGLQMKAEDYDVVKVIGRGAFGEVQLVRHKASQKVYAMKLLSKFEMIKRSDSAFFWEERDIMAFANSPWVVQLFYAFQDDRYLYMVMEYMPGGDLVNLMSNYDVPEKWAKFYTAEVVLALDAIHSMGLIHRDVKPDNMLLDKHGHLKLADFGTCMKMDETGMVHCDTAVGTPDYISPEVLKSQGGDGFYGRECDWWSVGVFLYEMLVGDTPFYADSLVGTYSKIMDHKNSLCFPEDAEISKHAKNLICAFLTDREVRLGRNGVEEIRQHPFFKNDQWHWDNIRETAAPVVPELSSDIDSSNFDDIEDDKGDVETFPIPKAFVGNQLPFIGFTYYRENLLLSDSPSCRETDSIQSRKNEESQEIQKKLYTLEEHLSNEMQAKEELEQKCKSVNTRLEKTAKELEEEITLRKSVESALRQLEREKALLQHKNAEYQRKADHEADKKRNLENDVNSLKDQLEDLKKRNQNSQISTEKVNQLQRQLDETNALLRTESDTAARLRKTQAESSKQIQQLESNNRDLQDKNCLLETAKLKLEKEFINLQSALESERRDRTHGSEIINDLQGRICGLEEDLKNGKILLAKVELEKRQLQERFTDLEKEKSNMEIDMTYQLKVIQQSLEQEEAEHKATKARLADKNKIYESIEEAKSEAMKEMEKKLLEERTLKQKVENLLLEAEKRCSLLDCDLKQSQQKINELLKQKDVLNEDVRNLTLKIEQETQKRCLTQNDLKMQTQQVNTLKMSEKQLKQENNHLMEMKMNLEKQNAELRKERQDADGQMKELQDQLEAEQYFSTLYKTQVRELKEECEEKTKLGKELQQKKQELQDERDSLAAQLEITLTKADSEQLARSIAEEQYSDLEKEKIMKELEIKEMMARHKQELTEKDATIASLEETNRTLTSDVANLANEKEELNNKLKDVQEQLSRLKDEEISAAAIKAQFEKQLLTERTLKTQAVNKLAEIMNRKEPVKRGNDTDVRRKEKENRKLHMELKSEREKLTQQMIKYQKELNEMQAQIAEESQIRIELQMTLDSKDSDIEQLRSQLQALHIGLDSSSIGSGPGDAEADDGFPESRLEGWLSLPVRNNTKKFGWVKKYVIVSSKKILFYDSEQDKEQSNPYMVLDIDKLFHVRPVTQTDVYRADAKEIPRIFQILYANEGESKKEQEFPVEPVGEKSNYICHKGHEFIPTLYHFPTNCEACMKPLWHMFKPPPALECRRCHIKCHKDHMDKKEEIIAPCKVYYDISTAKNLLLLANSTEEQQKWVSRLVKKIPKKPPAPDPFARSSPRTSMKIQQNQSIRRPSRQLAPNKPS
pIC50: −log10 of the molar value.
parameter: pIC50

> print(dat)
                                   molecule  recorded.value
1  COc1cc(F)cc(C(C)n2ccn(-c3ccc(-c4cn[nH]c4)cn3)c2=O)c1 (single isomer, unassigned) [Example 393]    7.70 to 8.68
2  COc1cccc(C(C(=O)O)N2CCN(c3ccc(-c4cn[nH]c4)cc3)C2=O)c1 (single isomer, unassigned)    5.70 to 6.70
3  COc1cccc(C(CO)n2ccn(-c3ccc(-c4cn[nH]c4)cc3)c2=O)c1 (single isomer, unassigned)    5.70 to 6.70
4  O=C1N(Cc2ccccn2)CCN1c1ccc(-c2cn[nH]c2)cn1    5.70 to 6.70

----------
target.under.test: ROCK2 (Homo sapiens)
Where a name gives a salt, the structure may show the parent alone.
# IC50 annotations
parameter: IC50

> print(dat)
                                    compound     target.under.test  recorded.value
 1  CNc1nc(N2CCN(Cc3ccc(F)c(OC)c3)C2=O)ccc1-c1cn[nH]c1  ROCK2 (Homo sapiens)  20.1 to 200 nM
 2  COc1cc(N2C(=O)CN(Cc3ccccc3F)C2=O)ccc1-c1cn[nH]c1 [Example 91, TFA]  ROCK2 (Homo sapiens)  200 to 2000 nM
 3  CCc1cc(N2CCN(Cc3ccccc3)C2=O)ccc1-c1cn[nH]c1  ROCK2 (Homo sapiens)  20.1 to 200 nM
 4  CCC1CN(c2ccc(-c3cn[nH]c3)cc2)C(=O)N1Cc1cc(F)cc(OC)c1 (stereo not shown)  ROCK2 (Homo sapiens)          < 2 nM
 5  COc1cc(N2C(=O)CN(C(C)c3ccccc3)C2=O)ccc1-c1cn[nH]c1 (stereo not shown)  ROCK2 (Homo sapiens)  200 to 2000 nM
 6  COCC(c1cccc(OC)c1)N1CCN(c2ccc(-c3cn[nH]c3)cc2)C1=O (single isomer, unassigned)  ROCK2 (Homo sapiens)  200 to 2000 nM
 7  O=C1CN(Cc2ccccc2Cl)C(=O)N1c1ccc(-c2cn[nH]c2)cc1  ROCK2 (Homo sapiens)  20.1 to 200 nM
 8  O=C1N(Cc2cccc(OCC3CC3)c2)CCN1c1ccc(-c2cn[nH]c2)cn1  ROCK2 (Homo sapiens)  20.1 to 200 nM
 9  COc1cc(F)cc(CN2CC(=O)N(c3ccc(-c4cn[nH]c4)cc3)C2=O)c1  ROCK2 (Homo sapiens)  20.1 to 200 nM
10  COc1nc(N2CCN(Cc3ccc(F)c(OCC4CC4)c3)C2=O)ccc1-c1cn[nH]c1  ROCK2 (Homo sapiens)    2.1 to 20 nM
11  COc1cc(F)cc(CN2CC(=O)N(c3ccc(-c4cn[nH]c4)c(OC)c3)C2=O)c1 [Example 94, TFA]  ROCK2 (Homo sapiens)  20.1 to 200 nM
12  COc1cc(F)cc(CN2CCN(c3ccc(-c4cn[nH]c4)c(C#N)c3)C2=O)c1  ROCK2 (Homo sapiens)  20.1 to 200 nM
13  CCc1cc(N2CCN([C@H](C)c3cccc(OC)c3)C2=O)ccc1-c1cn[nH]c1  ROCK2 (Homo sapiens)    2.1 to 20 nM
14  COc1cc(C(C)n2ccn(-c3ccc(-c4cn[nH]c4)c(OC)n3)c2=O)ccc1F (single isomer, unassigned) [Example 390]  ROCK2 (Homo sapiens)  20.1 to 200 nM
15  COc1cc(F)ccc1CN1CCN(c2ccc(-c3cn[nH]c3)c(OC)n2)C1=O  ROCK2 (Homo sapiens)  20.1 to 200 nM
16  COc1cccc(C(CO)N2CCN(c3ccc(-c4cn[nH]c4)cc3)C2=O)c1 (single isomer, unassigned)  ROCK2 (Homo sapiens)          < 2 nM
